biological target: CCKB receptor (Mus musculus, UniProt P56481); construct: The cortex was dissected, weighed and homogenised in 40 ml ice-cold buffer; from tissue; host or cells: cerebral cortex membranes of male CD1 mice (Charles River); assay: radioligand binding assay at the CCKB receptor in mouse cortical membranes ([125I]-CCK8S); conditions: 150 min at 21±3°, read-out: CCKB pKi (converted)
Sequence (P56481 whole entry): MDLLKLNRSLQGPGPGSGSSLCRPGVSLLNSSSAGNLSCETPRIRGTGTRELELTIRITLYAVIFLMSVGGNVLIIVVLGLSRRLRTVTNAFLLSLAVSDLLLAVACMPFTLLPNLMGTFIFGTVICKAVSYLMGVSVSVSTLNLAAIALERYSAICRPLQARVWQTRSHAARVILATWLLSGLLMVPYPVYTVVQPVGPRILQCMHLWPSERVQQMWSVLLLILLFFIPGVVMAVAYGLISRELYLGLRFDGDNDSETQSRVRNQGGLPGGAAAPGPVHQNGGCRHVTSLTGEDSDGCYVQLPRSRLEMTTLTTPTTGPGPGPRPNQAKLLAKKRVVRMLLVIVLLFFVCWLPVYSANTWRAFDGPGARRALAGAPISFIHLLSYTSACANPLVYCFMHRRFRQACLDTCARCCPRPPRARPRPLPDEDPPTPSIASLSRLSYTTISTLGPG
Measure: Ki (µM)

# example entries with known answers
C[C@@H](NC(=O)C[C@@H]1CCCN1C(=O)C1C2CCC(c3ccccc32)C1C(=O)NCC12CC3CC(CC(C3)C1)C2)C(=O)O (stereo partly shown) : 0.1
O=C(NCC12CC3CC(CC(C3)C1)C2)C1C2C=CC(c3ccccc32)C1C(=O)N1CCC[C@H]1C(=O)O (stereo partly shown) : 3.16

A = O=C(O)CNC(=O)[C@H]1CCCN1C(=O)C1C2CCC(c3ccccc32)C1C(=O)NCC12CC3CC(CC(C3)C1)C2 (stereo partly shown) [Example 42]
B = O=C(NCC12CC3CC(CC(C3)C1)C2)C1C2C=CC(CC2)C1C(=O)N1CCC[C@@H]1C(=O)O (mixture of isomers)
QUERY: // task: argmin of Ki over [ A , B ] // caller expects the label of the chosen entry
RESULT: A

---

molecular target: gastrin receptors (Rattus norvegicus, UniProt P30553); construct: from tissue; host or cells: isolated perfused whole stomach of immature rats (33-50 g, ca. 21 days old); test: gastrin antagonist activity in an immature rat stomach assay (pentagastrin-stimulated acid secretion); details: isolated immature rat stomach, cumulative pentagastrin dose-response curves, read-out: Gastrin pKB (converted)
Measure: Kb (nM)

In the examples that follow, each entry is paired with its recorded Kb.
O=C(O)c1cc(NC(=O)[C@H](Cc2ccccc2)NC(=O)C2C3CCC(c4ccccc43)C2C(=O)NCC23CC4CC(CC(C4)C2)C3)cc(C(=O)O)c1 (stereo partly drawn) : 251
O=C(O)[C@@H]1[C@H](C(=O)NCC23CC4CC(CC(C4)C2)C3)[C@H]2C=C[C@@H]1c1ccccc12 (relative stereo) : 1260
COC(=O)[C@H](C)NC(=O)C1C2CCC(c3ccccc32)C1C(=O)NCC12CC3CC(CC(C3)C1)C2 (stereo partly drawn) [Example 23] : 316

A = COC(=O)[C@H](C)NC(=O)C1C2C=CC(c3ccccc32)C1C(=O)NCC12CC3CC(CC(C3)C1)C2 (stereo partly drawn) [Example 8]
B = O=C(NCC12CC3CC(CC(C3)C1)C2)C1C2C=CC(c3ccccc32)C1C(=O)N[C@H](Cc1c[nH]c2ccccc12)C(=O)O (single isomer, unassigned) [Example 15]
C = COC(=O)[C@H](C)NC(=O)C1C2C=CC(c3ccccc32)C1C(=O)NCC12CC3CC(CC(C3)C1)C2 (stereo partly drawn) [Example 7]
QUERY: Rank descending by Kb. Use the labels to give the requested order.
RESULT: B, A, C

---

Target: gastrin receptors (Rattus norvegicus)
Construct: from tissue; host or cells: isolated perfused whole stomach of immature rats (33-50 g, ca. 21 days old)
Sequence (P30553 1-452): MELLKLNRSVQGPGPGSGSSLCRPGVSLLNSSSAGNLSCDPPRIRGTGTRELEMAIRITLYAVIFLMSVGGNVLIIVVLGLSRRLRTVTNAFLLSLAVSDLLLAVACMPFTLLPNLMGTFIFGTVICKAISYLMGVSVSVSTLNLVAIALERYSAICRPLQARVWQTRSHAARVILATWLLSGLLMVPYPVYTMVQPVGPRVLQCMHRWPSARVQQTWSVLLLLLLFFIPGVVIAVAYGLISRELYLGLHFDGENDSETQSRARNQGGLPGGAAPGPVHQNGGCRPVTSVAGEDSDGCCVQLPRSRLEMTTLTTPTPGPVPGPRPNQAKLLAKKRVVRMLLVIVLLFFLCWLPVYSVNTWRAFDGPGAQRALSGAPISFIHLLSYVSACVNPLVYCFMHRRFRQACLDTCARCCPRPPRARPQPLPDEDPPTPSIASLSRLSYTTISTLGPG
Assay: gastrin antagonist activity in an immature rat stomach assay (pentagastrin-stimulated acid secretion)
Details: isolated immature rat stomach, cumulative pentagastrin dose-response curves, read-out: Gastrin pKB (converted)
Measure: Kb (nM)

O=C(O)C1C2C=CC(C2=C(c2ccccc2)c2ccccc2)C1C(=O)NCC12CC3CC(CC(C3)C1)C2 (racemic) [Example 39] : 2510
COC(=O)[C@H](C)NC(=O)C1C2CCC(c3ccccc32)C1C(=O)NCC12CC3CC(CC(C3)C1)C2 (stereo partly drawn) [Example 22] : 200
CC1=C(C)[C@H]2c3ccccc3[C@@H]1[C@@H](C(=O)O)[C@H]2C(=O)NCC12CC3CC(CC(C3)C1)C2 (relative stereo) [Example 11] : 6310
COC(=O)[C@@H]1CCCN1C(=O)C1C2C=CC(c3ccccc32)C1C(=O)NCC12CC3CC(CC(C3)C1)C2 (stereo partly drawn) [Example 31] : 501

1 = O=C(O)CNC(=O)[C@H]1CCCN1C(=O)C1C2c3ccccc3C(c3cc4ccccc4cc32)C1C(=O)NCC12CC3CC(CC(C3)C1)C2 (single isomer, unassigned) [Example 37]
2 = O=C(NCC12CC3CC(CC(C3)C1)C2)C1C2C=CC(c3ccccc32)C1C(=O)N1CCC[C@H]1C(=O)O (stereo partly drawn) [Example 26]
QUERY: Between item 1 and item 2 , which reported Kb is smaller? Please indicate the selected item by its label.
RESULT: 1

---

molecular target: CCKA (Cavia porcellus, UniProt Q63931); construct: The pancreatata were removed from male guinea-pigs (200-300 g; Dunkin Hartley); from tissue; host or cells: pancreas membranes of male Dunkin Hartley guinea-pigs; experiment: CCKA binding assay in guinea-pig pancreas membranes ([125I]-CCK8(S)); settings: 150 minutes at 21±3°, 0.375 μM PD134,308, read-out: CCKA pKi (converted)
Sequence (Q63931 whole entry): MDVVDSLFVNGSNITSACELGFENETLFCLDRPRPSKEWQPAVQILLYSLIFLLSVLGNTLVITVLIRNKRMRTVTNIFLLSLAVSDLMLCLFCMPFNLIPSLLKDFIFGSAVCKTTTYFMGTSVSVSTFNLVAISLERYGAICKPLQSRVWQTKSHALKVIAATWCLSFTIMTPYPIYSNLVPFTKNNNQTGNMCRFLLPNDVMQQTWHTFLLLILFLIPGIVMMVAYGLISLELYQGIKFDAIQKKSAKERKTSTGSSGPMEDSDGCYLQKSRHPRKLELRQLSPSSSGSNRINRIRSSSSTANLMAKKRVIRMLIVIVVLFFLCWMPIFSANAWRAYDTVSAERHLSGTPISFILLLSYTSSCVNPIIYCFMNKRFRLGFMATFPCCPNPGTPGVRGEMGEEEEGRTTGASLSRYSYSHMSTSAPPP
Measure: Ki (µM)

a = O=C(O)CNC(=O)[C@H]1CCCN1C(=O)C1C2CCC(c3ccccc32)C1C(=O)NCC12CC3CC(CC(C3)C1)C2 (stereo partly shown) [Example 42]
b = O=C(O)CNC(=O)[C@H]1CCCN1C(=O)C1C2c3ccccc3C(c3cc4ccccc4cc32)C1C(=O)NCC12CC3CC(CC(C3)C1)C2 (single isomer, unassigned) [Example 37]
c = O=C(NCC12CC3CC(CC(C3)C1)C2)C1C2C=CC(c3ccccc32)C1C(=O)N[C@H](Cc1c[nH]c2ccccc12)C(=O)O (single isomer, unassigned) [Example 18]
QUERY: Lab note: rank above entries, Ki ascending. Note for the reader: the ranking is given by listing the labels in the order requested.
RESULT: c, b, a
(c: 1 µM, b: 3.16 µM, a: 6.31 µM)

---

target: CCKB receptor (Mus musculus); construct: The cortex was dissected, weighed and homogenised in 40 ml ice-cold buffer; from tissue; host or cells: cerebral cortex membranes of male CD1 mice (Charles River); assay: radioligand binding assay at the CCKB receptor in mouse cortical membranes ([125I]-CCK8S); conditions: 150 min at 21±3°, read-out: CCKB pKi (converted)
Measure: Ki (nM)

CC1=C(C)[C@H]2c3ccccc3[C@@H]1[C@H](C(=O)O)[C@@H]2C(=O)NCC12CC3CC(CC(C3)C1)C2 (relative stereo) : 794

A = O=C(NCC12CC3CC(CC(C3)C1)C2)C1C2C=CC(c3ccccc32)C1C(=O)N1C[C@H](O)C[C@@H]1C(=O)O (stereo partly drawn) [Example 28]
B = O=C(O)CNC(=O)[C@H]1CCCN1C(=O)C1C2CCC(c3ccccc32)C1C(=O)NCC12CC3CC(CC(C3)C1)C2 (stereo partly drawn) [Example 46]
QUERY: From the items above, decide which of A and B has the lower Ki reading. Please reply using the label of the selected record.
RESULT: B

---

As shown below, each of these compounds has a reported Kb value.
target: gastrin receptors (Rattus norvegicus, UniProt P30553); construct: from tissue; host or cells: isolated perfused whole stomach of immature rats (33-50 g, ca. 21 days old); assay: gastrin antagonist activity in an immature rat stomach assay (pentagastrin-stimulated acid secretion); conditions: isolated immature rat stomach, cumulative pentagastrin dose-response curves, read-out: Gastrin pKB (converted)
Please state the figure in µM; there is no need to write the unit.

Recorded Kb, per entry:
O=C(NCC12CC3CC(CC(C3)C1)C2)C1C2C=CC(c3ccccc32)C1C(=O)N[C@H](Cc1c[nH]c2ccccc12)C(=O)O (single isomer, unassigned) [Example 16] : 0.501
O=C1CC2c3ccccc3C1C(C(=O)O)C2C(=O)NCC12CC3CC(CC(C3)C1)C2 (mixture of isomers) : 3.16

Note: attention shifts to another entry.
QUERY: Answer with reported Kb of CC1=C(C)[C@H]2c3ccccc3[C@@H]1[C@H](C(=O)O)[C@@H]2C(=O)NCC12CC3CC(CC(C3)C1)C2 (relative stereo)
RESULT: 5.01

---

biological target: CCKA (Cavia porcellus, UniProt Q63931); construct: The pancreatata were removed from male guinea-pigs (200-300 g; Dunkin Hartley); from tissue; host or cells: pancreas membranes of male Dunkin Hartley guinea-pigs; assay: CCKA binding assay in guinea-pig pancreas membranes ([125I]-CCK8(S)); conditions: 150 minutes at 21±3°, 0.375 μM PD134,308, read-out: CCKA pKi (converted)
Measure: Ki (µM)

C[C@@H](NC(=O)[C@H]1CCCN1C(=O)C1C2CCC(c3ccccc32)C1C(=O)NCC12CC3CC(CC(C3)C1)C2)C(=O)O (stereo partly shown) : 7.94
C[C@H](NC(=O)[C@@H]1CCCN1C(=O)C1C2CCC(c3ccccc32)C1C(=O)NCC12CC3CC(CC(C3)C1)C2)C(=O)O (stereo partly shown) : 10
O=C1CC2c3ccccc3C1C(C(=O)N1CCC[C@@H]1C(=O)O)C2C(=O)NCC12CC3CC(CC(C3)C1)C2 (single isomer, unassigned) : 7.94
O=C(O)CNC(=O)[C@H]1CCCN1C(=O)C1C2c3ccccc3C(c3cc4ccccc4cc32)C1C(=O)NCC12CC3CC(CC(C3)C1)C2 (single isomer, unassigned) [Example 38] : 7.94

Sourced from patent US5674905A
